# Tested on: OVCAR-4 ovarian
# Assay: NCI-60 one-dose screen, 48 h (100 = growth as untreated, 0 = no growth, -100 = all killed)
# Protocol conditions: 10 µM unless noted
About 83,000 compounds went through this panel and 20% of them were active in at least one assay; those are over-represented in the sample as a whole. Calls of active or inactive are those of the source. The calls were made as follows: active = growth percent below 10; inactive = the rest.
Measure name: growth

>>> recorded_result("O=C1/C(=C/C=C/c2ccco2)SC(=S)N1Cc1ccccc1")
"95.1% (inactive)"
>>> recorded_result("CCOC(=O)c1cccc(NC2=C(Cl)C(=O)c3nc(C)ccc3C2=O)c1")
"53.7% (inactive)"
>>> recorded_result("CC(=O)OC[C@@]12Oc3c(cccc3-c3ccc(O)c4c3O[C@]3(COC(C)=O)C(=C4O)C(=O)C[C@H](C)[C@@H]3OC(C)=O)C(O)=C1C(=O)C[C@H](C)[C@@H]2OC(C)=O")
"5.47% (active)"

====

# Tested on: MCF7 breast
# Assay: NCI-60 one-dose screen, 48 h
# Protocol conditions: 10 µM unless noted
The panel holds about 83,000 compounds, 20% with a hit somewhere; the sample as a whole holds those more often. Activity calls are given as the source filed them. The calls were made as follows: active = growth percent below 10; inactive = the rest.
Labels: true for active, false for inactive

>>> assigned_label("CCCCCC[n+]1ccc(SCC(=O)n2ccc3ccccc32)c2ccccc21")
"false"
>>> assigned_label("CCOC(=O)c1c(NC(=O)c2cccc(C(F)(F)F)c2)sc2c3c(ccc12)OCN(C)C3")
"true"
>>> assigned_label("CN1CCN(c2ccc(Nc3nc(NCCCNS(=O)(=O)c4ccc(Cl)cc4)c4sccc4n3)cc2)CC1")
"false"
>>> assigned_label("CCCCN1C(=O)/C(=c2\\sc3n(c2=O)C2C(NN=3)N(CC)C(=O)N2CC)c2cccc(C)c21 (stereo not given)")
"false"
>>> assigned_label("NCCNC(=O)c1cccc(COc2ccccc2NC(=O)c2cc(Br)c(Br)[nH]2)c1")
"false"

====

# System: COLO 205 colon
# Assay: NCI-60 one-dose screen, 48 h
# Protocol conditions: 10 µM unless noted
The panel holds about 83,000 compounds, 20% with a hit somewhere; the sample as a whole holds those more often. Calls of active or inactive are those of the source. How the source made its calls: active means growth percent below 10; inactive means the rest.
Outcomes: active, inactive

>>> assigned_label("Cc1ncn(-c2ccc(/C=N/Nc3ccnc4cc(Cl)ccc34)cc2)c1C")
"active"
>>> assigned_label("O=C(CSc1nnc(-c2ccc(Cl)cc2)n1-c1ccccc1)Nc1ccccc1Cl")
"inactive"
>>> assigned_label("O=C1C(SCc2ccccc2)=C(Cl)CN1c1ccc(Cl)cc1")
"inactive"
>>> assigned_label("CC1(C)C=Cc2cc(/C(N)=N/C(N)=N/c3nc4ccccc4s3)ccc2O1")
"inactive"
>>> assigned_label("CN1CCN(c2ccc(Nc3nc(NCCNS(=O)(=O)c4ccccc4)c4sccc4n3)cc2)CC1")
"inactive"
>>> assigned_label("O=C(CCCCCCN1CC(=O)N2[C@@H](c3ccc(Cl)s3)c3[nH]c4ccccc4c3C[C@H]2C1=O)NO")
"inactive"
>>> assigned_label("CC[C@]12C=CCN3CC[C@@]4(c5ccc(OC)cc5N(C)[C@H]4[C@@](O)(C(=O)OC)[C@@H]1OC(=O)CCN1CCc4ccccc4C1)[C@@H]32")
"inactive"
>>> assigned_label("O=C(CCl)Nc1ccc(NC(=O)c2cc(Cl)ccc2O)c(Cl)c1")
"inactive"
>>> assigned_label("COc1ccc2sc(NC(=O)CCCCCCNC(=O)C(O)(O)C(F)(F)F)nc2c1")
"active"
>>> assigned_label("C/C(=N/N)c1nnn(-c2ccc(Br)cc2)c1C")
"inactive"
>>> assigned_label("CCc1cccc2c3c(sc12)C(c1ccc(F)cc1)C(C#N)=C(/N=C/c1ccc(Cl)cc1)O3 (configuration not stated)")
"active"
>>> assigned_label("CCS(=O)(=O)Nc1ccc(C(=O)CC2(O)C(=O)Nc3ccccc32)cc1 (configuration not stated)")
"inactive"
>>> assigned_label("COc1ccc2[nH]cc(/C=N/Nc3ccnc4cc(Cl)ccc34)c2c1")
"active"
>>> assigned_label("Brc1cccc(-c2cc(-c3cnc4c(c3)OCCO4)n[nH]2)c1")
"inactive"
>>> assigned_label("O=C1Nc2ccccc2/C1=C/c1ccc(OCC(=O)c2ccccc2)cc1")
"inactive"
>>> assigned_label("Cc1cc(Br)ccc1-n1cc(C#N)c(N)c1C(=O)c1ccc(Br)cc1")
"inactive"
>>> assigned_label("CN1CCN(Cc2ccc(NC(=O)c3cncc(C#Cc4cnc5ccc(NCCO)nn45)c3)cc2C(F)(F)F)CC1")
"active"
>>> assigned_label("CCCC[n+]1ccc(SCC(=O)n2ccc3ccccc32)c2ccccc21")
"inactive"
>>> assigned_label("O=c1[nH][nH]c(-c2ccc(F)cc2)c1-c1nc2ccccc2s1")
"inactive"
>>> assigned_label("Cn1ncc2c(C(=O)c3ccc(F)cc3)nc(C(C)(C)C)nc21")
"inactive"
>>> assigned_label("CCOC(=O)c1c(N)c(C#N)cn1Cc1ccc(Cl)cc1Cl")
"inactive"
>>> assigned_label("C/C(=N\\NC(=O)Nc1ccccc1)c1nnn(-c2ccc([N+](=O)[O-])cc2)c1C")
"inactive"
>>> assigned_label("Cc1ccc(NC(=O)/C=C/c2ccc(OCCCOc3ccc4c(C)cc(=O)oc4c3)cc2)cc1")
"inactive"
>>> assigned_label("COc1ccc(-c2nc(C#N)c(N3CCC(S(=O)(=O)N4CCOCC4)CC3)o2)cc1")
"inactive"
>>> assigned_label("N#Cc1nc(-c2ccccc2)oc1N1CCC(C2(C(F)(F)F)N=N2)CC1")
"inactive"
>>> assigned_label("O=C(Nc1ccc(Cl)c(C(F)(F)F)c1)Nc1ccc2c(ccn2C(=O)c2cccc(F)c2)c1")
"inactive"
>>> assigned_label("NC1C2CCC1CN(c1cnc(C(=O)Nc3cc(F)cc4cccnc34)cn1)C2 (configuration not stated)")
"active"

====

# Tested on: HCC-2998 colon
# Assay: NCI-60 one-dose screen, 48 h (100 = growth as untreated, 0 = no growth, -100 = all killed)
# Protocol conditions: 10 µM unless noted
This is part of a sample that, as a whole, favours compounds with a hit. Of some 83,000 tested, about 20% had one in any assay. Activity calls are given as the source filed them. How the source made its calls: active means growth percent below 10; inactive means the rest.
Measure name: growth

>>> recorded_result("CCN(CC)CCOc1ccc(C(=C(C)Cc2ccc(OC)cc2)c2ccc(OCCN(CC)CC)cc2)cc1")
"44.8% (inactive)"
>>> recorded_result("CCCCCCOC(=O)c1cc(-c2ccc(F)cc2)nc2ccccc12")
"106% (inactive)"
>>> recorded_result("Oc1ccc(-c2nc3ccc(/C(=N\\N=C\\c4ccc(Cl)cc4)c4ccccc4)cc3[nH]2)cc1")
"91.9% (inactive)"
>>> recorded_result("COc1ccc(C(C)=C(c2ccc(OCCN3CCCCCC3)cc2)c2ccc(OCCN3CCCCCC3)cc2)cc1")
"-79.3% (active)"
>>> recorded_result("NS(=O)(=O)c1ccc(Nc2nc(N/N=C/c3ccc4c(c3)OCO4)nc(Nc3ccccc3)n2)cc1")
"23.2% (inactive)"
>>> recorded_result("Cc1ccc(OCc2occc2C(=O)N2CCOCC2)cc1")
"103% (inactive)"
>>> recorded_result("CCCCCCCCCCCC(=O)NC(C)(C)C(=O)N1CCCC1C(=O)NC(C)(C)C(=O)NC(C)(C)C(=O)N1CCCC1C(=O)NC(C)(C)C(=O)NC(C)(C)C(=O)N1CCCC1C(=O)NC(C)C(=O)NCCC(=O)NC(C)C(=O)NC(C)(C)C(=O)NC(C)(C)C(=O)NC(C)(C)C(=O)NCCC(=O)NC(C)(C)C(=O)NC(C)(C)C(=O)NC(C)(C)C(=O)NC(C)C(=O)NCCC(=O)O (centres undefined)")
"-92.4% (active)"
>>> recorded_result("CCN(CC)S(=O)(=O)c1ccc(-c2nc(C(Cl)Cl)nc3cc(C)nn23)cc1")
"23.8% (inactive)"
>>> recorded_result("Cc1ccc(S(=O)(=O)NCCCNc2nc(Nc3ccc(N4CCN(C)CC4)cc3)nc3ccsc23)cc1")
"27.3% (inactive)"
>>> recorded_result("Cc1[nH]c(C(=O)Nc2ccccc2OCc2cccc(C(=O)NCCN)c2)cc1Cl")
"109% (inactive)"
>>> recorded_result("CN(C)c1ccc(/C=N/Nc2nc(N/N=C/c3ccc(N(C)C)cc3)nc(N3CCCCC3)n2)cc1")
"103% (inactive)"
>>> recorded_result("CC[C@]12CC(C(=O)OC)=C3Nc4ccccc4[C@@]34CCN(C14)[C@@H]1c3cc4c(cc3O[C@@H]1[C@H]2O)NC1=C(C(=O)OC)C[C@@]2(CC)C3N(CC[C@@]143)C[C@H]1O[C@H]12 (some centres undefined)")
"-41.3% (active)"
>>> recorded_result("Cc1ccc2c(n1)C(=O)C(Cl)=C(Nc1ccc(C#N)cc1)C2=O")
"108% (inactive)"
>>> recorded_result("CCCc1cc2cc(-n3nc(CC)c4c3CC(C)(C)CC4=O)cc(NC3CCC(O)CC3)c2c(=O)[nH]1 (centres undefined)")
"8.95% (active)"
>>> recorded_result("Cc1ccc(NC2=C(Cl)C(=O)c3nc(C)ccc3C2=O)c(C)c1")
"64.6% (inactive)"
>>> recorded_result("Cc1ccccc1NC(=O)Nc1nc2ccc([N+](=O)[O-])cc2s1")
"24.6% (inactive)"
>>> recorded_result("COc1cc(OC)cc(-c2cc(-c3c[nH]c4ccccc34)nc(-c3c[nH]c4ccccc34)c2C#N)c1")
"113% (inactive)"
>>> recorded_result("CCc1cc2c(cc1Cl)nc1c(=O)[nH]c(=O)nc-1n2CCOCC(C)C")
"80.3% (inactive)"
>>> recorded_result("C#C[C@]1(O)CC[C@H]2[C@@H]3CC=C4c5sc(Nc6cccc(F)c6)nc5CC[C@]4(C)[C@H]3CC[C@@]21C")
"42% (inactive)"
>>> recorded_result("CC[C@]12C=CCN3CC[C@]4(C(=C(C(=O)OC)C1)Nc1cc5c(cc14)[C@@H]1[C@H](O5)[C@@H](O)[C@@]4(CC)CC(C(=O)OC)=C5Nc6cc(O)ccc6[C@@]56CCN1C46)C32 (some centres undefined)")
"-64.8% (active)"
>>> recorded_result("CNC(=O)c1cc(N2CCc3cc(NC(=O)Nc4ccc(N5CCOCC5)c(C(F)(F)F)c4)ccc32)ccn1")
"22% (inactive)"
>>> recorded_result("NS(=O)(=O)c1ccc(Nc2nc(Nc3ccccc3)nc(N3N=C(c4ccc(Cl)cc4)CC3c3ccc(Cl)cc3)n2)cc1 (centres undefined)")
"13.1% (inactive)"
>>> recorded_result("CCCC/C(=C\\c1ccc(O)c(O)c1)C(=O)NC(Cc1ccccc1)C(=O)C(=O)NCCc1ccc(OC)cc1 (centres undefined)")
"102% (inactive)"
>>> recorded_result("CC1CC(=O)C2=C(C1)Nc1ccc(Br)cc1CC2c1c[nH]c2ccc(Br)cc12 (centres undefined)")
"69.6% (inactive)"

These entries and their values trace back to PubChem BioAssay (NCI).
